// each record: one item and its IC50 for human PTPN1 (1-435) (Homo sapiens (Human), UniProt P18031)
Answers are plain numbers, in µM.

# compound, unit-abbreviation, IC50
data = [
    ("Cc1nn[nH]c1-c1cc(OCCCC(F)(F)F)c2sc(C(F)(F)P(=O)(O)O)c(Br)c2c1 [Compound 366]", "µM", 0.0025),
]

Dear colleague, could you send me IC50 for each of the items below? Thanks.
1. NC(=O)c1cc(OCC(=O)Nc2c(F)cccc2F)c2sc(C(F)(F)P(=O)(O)O)c(Br)c2c1 [Compound 257]
2. CC(C)(O)CCCNc1cccc2c(Br)c(C(F)(F)P(=O)(O)O)sc12 [Compound 224]
3. Cn1cc(CCNC(=O)c2ccc3sc(C(F)(F)P(=O)(O)O)c(Br)c3c2)c2ccccc21 [Compound 155]
4. O=C(NC[C@]12C[C@@H]1CCN2Cc1ccccc1)c1ccc2sc(C(F)(F)P(=O)(O)O)c(Br)c2c1 [Compound 88]
5. O=C(NCc1nccc(-c2cccnc2)n1)c1ccc2sc(C(F)(F)P(=O)(O)O)c(Br)c2c1 [Compound 91]
6. N#Cc1cc(C(=O)NCc2cccnn2)cc2c(Br)c(C(F)(F)P(=O)(O)O)sc12 [Compound 161]

1. 0.237
2. 2.39
3. 2.38
4. 1.09
5. 4.98
6. 0.446

----------
Target: human PTPN2 (1-387) (Homo sapiens (Human), UniProt P17706)
Sequence (P17706 other isoform, or with tags, fused parts or gaps): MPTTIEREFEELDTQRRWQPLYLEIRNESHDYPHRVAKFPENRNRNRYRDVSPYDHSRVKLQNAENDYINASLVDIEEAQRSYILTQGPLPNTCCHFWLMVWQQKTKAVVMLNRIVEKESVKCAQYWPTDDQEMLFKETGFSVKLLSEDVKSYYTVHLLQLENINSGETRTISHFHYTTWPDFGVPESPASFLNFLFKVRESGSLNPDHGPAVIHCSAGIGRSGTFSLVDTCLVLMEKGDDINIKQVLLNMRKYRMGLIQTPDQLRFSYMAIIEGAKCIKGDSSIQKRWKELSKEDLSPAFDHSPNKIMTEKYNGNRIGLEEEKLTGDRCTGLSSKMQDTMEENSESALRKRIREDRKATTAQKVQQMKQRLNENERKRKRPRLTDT
pIC50: −log10 of the molar value.
I'd appreciate it if you could label each record using pIC50 and these ranges: label 0: < 6; label 1: ≥ 6 and < 7; label 2: ≥ 7

See these solved cases before continuing.
# compound, system, class-label
measured = [
    ("O=C(NCc1ncc[nH]1)c1ccc2sc(C(F)(F)P(=O)(O)O)c(Br)c2c1 [Compound 174]", "human PTPN2 (1-387) (Homo sapiens (Human), UniProt P17706)", "label 0"),
    ("N#Cc1c(C(F)(F)P(=O)(O)O)sc2c(OCC3CC3(F)F)cc(C(N)=O)cc12 (stereo not shown) [Compound 426]", "human PTPN2 (1-387) (Homo sapiens (Human), UniProt P17706)", "label 2"),
    ("CNC(=O)c1cc(OCCC(C)(F)F)c2sc(C(F)(F)P(=O)(O)O)c(Br)c2c1 [Compound 325]", "human PTPN2 (1-387) (Homo sapiens (Human), UniProt P17706)", "label 1"),
]

Exam item: assign O=P(O)(O)C(F)(F)c1sc2c(OCC3CC3(F)F)cc(-c3nc[nH]n3)cc2c1Br (stereo not shown) [Compound 442] to the correct category.
label 2

Exam item: assign C[C@@H](Cc1cccc(C(F)(F)F)c1)NC(=O)c1ccc2sc(C(F)(F)P(=O)(O)O)c(Br)c2c1 [Compound 69] to the correct category.
label 0

Exam item: assign O=C1CCC(CNC(=O)c2ccc3sc(C(F)(F)P(=O)(O)O)c(Br)c3c2)N1 (stereo not shown) [Compound 136] to the correct category.
label 0

Exam item: assign C[Si](C)(C)CCc1cc(C(N)=O)cc2c(Br)c(C(F)(F)P(=O)(O)O)sc12 [Compound 314] to the correct category.
label 2

----------
Target: human PTPN1 (1-435) (Homo sapiens (Human))
pIC50: −log10 of the molar value.
Mark False for pIC50 values under 6, and True for everything at or above.

# molecule, class-label
rows = [
    ("Cn1cnc(CNC(=O)c2ccc3sc(C(F)(F)P(=O)(O)O)c(Br)c3c2)n1", "False"),
    ("NC(=O)c1cc(CCc2ccccc2)c2sc(C(F)(F)P(=O)(O)O)c(Br)c2c1", "True"),
]

Please check the record NC(=O)c1cc(OCCC2CCCS2(=O)=O)c2sc(C(F)(F)P(=O)(O)O)c(Br)c2c1 (single isomer, unassigned) [Compound 371] and state if its pIC50 is at or above 6.
True

Please check the record `O=C(Nc1ccccc1OC1CCOCC1)c1ccc2sc(C(F)(F)P(=O)(O)O)c(Br)c2c1` and state if its pIC50 is at or above 6.
False

Please check the record `N#CCOc1cc(C(N)=O)cc2c(Br)c(C(F)(F)P(=O)(O)O)sc12` and state if its pIC50 is at or above 6.
True

Please check the record `NC(=O)c1cc(OCC2CCC(F)(F)CC2)c2sc(C(F)(F)P(=O)(O)O)c(Br)c2c1` and state if its pIC50 is at or above 6.
True

Please check the record `N#Cc1cc(C(=O)NCc2c[nH]nn2)cc2c(Br)c(C(F)(F)P(=O)(O)O)sc12` and state if its pIC50 is at or above 6.
True

Please check the record `O=C(Nc1ccccc1)c1ccc2sc(C(F)(F)P(=O)(O)O)c(C(F)F)c2c1` and state if its pIC50 is at or above 6.
False

Please check the record `O=C(NCc1ncc[nH]1)c1ccc2sc(C(F)(F)P(=O)(O)O)c(Br)c2c1` and state if its pIC50 is at or above 6.
False

Please check the record `Cc1[nH]cnc1CNC(=O)c1ccc2sc(C(F)(F)P(=O)(O)O)c(Br)c2c1` and state if its pIC50 is at or above 6.
False

Please check the record O=C(NC1CCCN(Cc2ccccc2F)C1)c1ccc2sc(C(F)(F)P(=O)(O)O)c(Br)c2c1 (centres unmarked) and state if its pIC50 is at or above 6.
False

Please check the record `COc1cc(C(=O)NCc2cccnn2)cc2c(Br)c(C(F)(F)P(=O)(O)O)sc12` and state if its pIC50 is at or above 6.
True

Please check the record `C[C@@H](Cc1cccc(C(F)(F)F)c1)NC(=O)c1ccc2sc(C(F)(F)P(=O)(O)O)c(Br)c2c1` and state if its pIC50 is at or above 6.
False

Please check the record `O=C(NCc1cccnn1)c1cc(O)c2sc(C(F)(F)P(=O)(O)O)c(Br)c2c1` and state if its pIC50 is at or above 6.
False

----------
Molecular target: human PTPN1 (1-435) (Homo sapiens (Human), UniProt P18031)
Sequence (P18031 whole entry): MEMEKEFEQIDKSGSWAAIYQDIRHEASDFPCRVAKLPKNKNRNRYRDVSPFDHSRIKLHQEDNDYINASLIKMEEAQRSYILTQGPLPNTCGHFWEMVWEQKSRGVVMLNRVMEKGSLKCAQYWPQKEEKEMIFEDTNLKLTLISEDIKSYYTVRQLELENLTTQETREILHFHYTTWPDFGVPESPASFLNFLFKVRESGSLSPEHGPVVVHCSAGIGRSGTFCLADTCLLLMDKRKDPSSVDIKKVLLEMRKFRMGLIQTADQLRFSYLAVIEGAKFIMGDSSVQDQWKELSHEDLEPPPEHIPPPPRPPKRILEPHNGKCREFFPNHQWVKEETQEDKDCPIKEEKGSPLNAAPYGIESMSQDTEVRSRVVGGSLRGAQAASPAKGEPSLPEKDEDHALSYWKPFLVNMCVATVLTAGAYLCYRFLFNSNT
Assay: Human PTPN1 Biochemical Assay
Conditions: DiFMUP substrate, read-out: PTP1B IC50
pIC50: −log10 of the molar value.
Mark Not met for pIC50 values under 6, and Met for everything at or above.

# compound, system, class-label
records = [
    ("Cc1c(C(F)(F)P(=O)(O)O)sc2c(OCC3CC3(F)F)cc(C(N)=O)cc12 (centres unmarked) [Compound 435]", "human PTPN1 (1-435) (Homo sapiens (Human), UniProt P18031)", "Met"),
    ("N#CC1CCC(NC(=O)c2ccc3sc(C(F)(F)P(=O)(O)O)c(Br)c3c2)C1 (centres unmarked)", "human PTPN1 (1-435) (Homo sapiens (Human), UniProt P18031)", "Not met"),
]

Please check the record `N#Cc1cccc2c(Br)c(C(F)(F)P(=O)(O)O)sc12` and state if its pIC50 is at or above 6.
Not met

Please check the record `NC(=O)c1cc(OC[C@@H]2C[C@@H]2F)c2sc(C(F)(F)P(=O)(O)O)c(Br)c2c1` and state if its pIC50 is at or above 6.
Met

Please check the record `NC(=O)c1cc(OCCCCC(F)(F)C(F)(F)F)c2sc(C(F)(F)P(=O)(O)O)c(Br)c2c1` and state if its pIC50 is at or above 6.
Met

Please check the record `CCc1nc(CNC(=O)c2ccc3sc(C(F)(F)P(=O)(O)O)c(Br)c3c2)no1` and state if its pIC50 is at or above 6.
Not met

Please check the record `N#CCCNC(=O)c1ccc2sc(C(F)(F)P(=O)(O)O)c(C#N)c2c1` and state if its pIC50 is at or above 6.
Not met

----------
Field: IC50. Provide a value for each of the molecules that follow.
Biological target: human PTPN1 (1-435) (Homo sapiens (Human))
Numbers only, in µM.

# item-smiles, quantitative-result
measured = [
    ("O=C(NCc1cc[nH]n1)c1ccc2sc(C(F)(F)P(=O)(O)O)c(Br)c2c1", 2.32),
    ("O=P(O)(O)C(F)(F)c1sc2c(NCCC3CCCCC3)cccc2c1Br", 2.44),
    ("NC(=O)c1cc(OCc2ccc(-c3ccccc3)cc2)c2sc(C(F)(F)P(=O)(O)O)c(Br)c2c1", 0.0164),
]

Dear colleague, could you send me IC50 for each of the items below? Thanks.
1. N#Cc1cccc(-c2cccc(NC(=O)c3ccc4sc(C(F)(F)P(=O)(O)O)c(Br)c4c3)c2)c1
2. NC(=O)c1cc(OCC2CC3(CC3)C2)c2sc(C(F)(F)P(=O)(O)O)c(Br)c2c1
3. CN1C[C@H]2[C@H](CNC(=O)c3ccc4sc(C(F)(F)P(=O)(O)O)c(Br)c4c3)[C@H]2c2ccccc21
4. O=C(NCc1cn2ccccc2n1)c1ccc2sc(C(F)(F)P(=O)(O)O)c(Br)c2c1

0.516
0.0845
1.09
2.64

Consider the molecule `O=C(NCc1ncc(F)cn1)c1ccc2sc(C(F)(F)P(=O)(O)O)c(Br)c2c1` and give its measured IC50.
4.97
